Please go through the items and note down their Cmax.
Test: Cmax in Sprague-Dawley rat at 20 mg/kg, po after 0.25 to 24 hrs by LC-MS/MS analysis
Type: ADME, organism-based
Parameters: dose 20 mg/kg, route oral
Conditions: in vivo
Form field: result (number plus unit)

Query: Recorded Cmax for CC[C@H]1OC(=O)[C@H](C)C(=O)[C@H](C)[C@@H](O[C@@H]2O[C@H](C)C[C@H](N(C)C)[C@H]2O)[C@](C)(OC)C[C@@H](C)C(=O)[C@H](C)[C@H]2N(CCCCn3cnc(-c4cccnc4)c3)C(=O)O[C@]12C , please?
Result: 204 ng/mL

Query: Recorded Cmax for CC[C@H]1OC(=O)[C@@](C)(F)C(=O)[C@H](C)[C@@H](O[C@@H]2O[C@H](C)C[C@H](N(C)C)[C@H]2O)[C@](C)(OC)C[C@@H](C)/C(=N\OCC#Cc2ccc3c(c2)c(=O)c(C(N)=O)cn3CC)[C@H](C)[C@H]2OC(=O)O[C@@]21C , please?
Result: 43.5 ng/mL

Query: Recorded Cmax for CC[C@H]1OC(=O)[C@@](C)(F)C(=O)[C@H](C)[C@@H](O[C@@H]2O[C@H](C)C[C@H](N(C)C)[C@H]2O)[C@](C)(OC)C[C@@H](C)/C(=N\OC/C=C/c2ccc3c(c2)c(=O)c(C(N)=O)cn3CC)[C@H](C)[C@H]2OC(=O)O[C@@]21C , please?
Result: 124 ng/mL

Query: Recorded Cmax for CC[C@H]1OC(=O)[C@@](C)(F)C(=O)[C@H](C)[C@@H](O[C@@H]2O[C@H](C)C[C@H](N(C)C)[C@H]2O)[C@](C)(OC/C=C/c2ccc3c(c2)c(=O)c(C(N)=O)cn3C2CC2)C[C@@H](C)/C(=N\OC)[C@H](C)[C@H]2OC(=O)O[C@@]21C , please?
Result: 369 ng/mL

* * *

Test: AUCinfinity in Sprague-Dawley rat at 20 mg/kg, po after 0.25 to 24 hrs by LC-MS/MS analysis
Type: ADME, organism-based
Design: dose 20 mg/kg, time infinity, route oral
Details: Sprague-Dawley, in vivo
Please go through the items and note down their AUC(0-inf).
Could you give me the number in ng·h/mL? Just the number is fine.

Query: Recorded AUC(0-inf) for CC[C@H]1OC(=O)[C@@](C)(F)C(=O)[C@H](C)[C@@H](O[C@@H]2O[C@H](C)C[C@H](N(C)C)[C@H]2O)[C@](C)(OC)C[C@@H](C)/C(=N\OCC#Cc2ccc3c(c2)c(=O)c(C(N)=O)cn3CC)[C@H](C)[C@H]2OC(=O)O[C@@]21C , please?
Result: 281

Query: Recorded AUC(0-inf) for CC[C@H]1OC(=O)[C@H](C)C(=O)[C@H](C)[C@@H](O[C@@H]2O[C@H](C)C[C@H](N(C)C)[C@H]2O)[C@](C)(OC)C[C@@H](C)C(=O)[C@H](C)[C@H]2N(CCCCn3cnc(-c4cccnc4)c3)C(=O)O[C@]12C [TELITHROMYCIN] , please?
Result: 927

Query: Recorded AUC(0-inf) for CC[C@H]1OC(=O)[C@@](C)(F)C(=O)[C@H](C)[C@@H](O[C@@H]2O[C@H](C)C[C@H](N(C)C)[C@H]2O)[C@](C)(OC/C=C/c2ccc3c(c2)c(=O)c(C(N)=O)cn3C2CC2)C[C@@H](C)/C(=N\OC)[C@H](C)[C@H]2OC(=O)O[C@@]21C , please?
Result: 4770
